- tested system: UniProtKB Q7Z5P4
- assay procedure: Substrate screening of steroid and bioactive lipid libraries against purified recombinant HSD17B13 (NADH-linked luciferase assay)
- Type: biochemical
- study conditions: Steroid Library, 50 μM steroid, normalized to 50 μM estradiol after subtraction of 5% DMSO
observed property: HSD17B13 Enzymatic Activity Percent Estradiol Control (%)
Expressed in %, but write only the number.

Quick note, HSD17B13 Enzymatic Activity Percent Estradiol Control for C[C@]12CCC(=O)C=C1CC[C@@H]1[C@@H]2C(=O)C[C@@]2(C)[C@H]1CC[C@]2(O)C(=O)CO [Cortisone] landed at 0.76

// HSD17B13 Enzymatic Activity Percent Estradiol Control lookup, compound = C[C@@H]1C[C@@]2(C)[C@@H](CC[C@@H]3[C@@H]2CC[C@@]2(C)[C@H]3CC[C@]2(C)O)CC1=O [Superdrol] , result: −0.95

Looking up CC(=O)OCC(=O)[C@@]1(O)CC[C@H]2[C@@H]3CCC4=CC(=O)CC[C@]4(C)[C@H]3C(=O)C[C@@]21C [Cortisone 21-acetate] , I found its HSD17B13 Enzymatic Activity Percent Estradiol Control recorded as 0.69

# HSD17B13 Enzymatic Activity Percent Estradiol Control of C[C@]12CC[C@@H](O)C[C@H]1CC[C@@H]1[C@@H]2C(=O)C[C@@]2(C)[C@H]1CC[C@]2(O)C(=O)CO [TetrahydroCortisone] = 1.25

HSD17B13 Enzymatic Activity Percent Estradiol Control reading for C[C@]12C[C@H](O)[C@H]3[C@@H](CCC4=CC(=O)CC[C@@]43C)[C@@H]1CC[C@@H]2C(=O)CO [Corticosterone] : 0.96

Measured HSD17B13 Enzymatic Activity Percent Estradiol Control, C[C@]12CC[C@H]3[C@@H](CCC4=CC(=O)CC[C@@]43C)[C@@H]1CC[C@@H]2O [Testosterone] : 16.86

Per the record, C[C@]12CCC(=O)C=C1CC[C@@H]1[C@@H]2CC[C@]2(C)C(=O)CC[C@@H]12 [Androstenedione] has HSD17B13 Enzymatic Activity Percent Estradiol Control of 0.21

For this compound ( C[C@]12CC[C@H](O)CC1=CC[C@@H]1[C@@H]2CC[C@]2(C)C(=O)CC[C@@H]12 [Dehydroepiandrosterone] ), measured HSD17B13 Enzymatic Activity Percent Estradiol Control is 0.62

###

- tested system: human HSD17B13 (Homo sapiens)
- Sequence (Q7Z5P4 20-300): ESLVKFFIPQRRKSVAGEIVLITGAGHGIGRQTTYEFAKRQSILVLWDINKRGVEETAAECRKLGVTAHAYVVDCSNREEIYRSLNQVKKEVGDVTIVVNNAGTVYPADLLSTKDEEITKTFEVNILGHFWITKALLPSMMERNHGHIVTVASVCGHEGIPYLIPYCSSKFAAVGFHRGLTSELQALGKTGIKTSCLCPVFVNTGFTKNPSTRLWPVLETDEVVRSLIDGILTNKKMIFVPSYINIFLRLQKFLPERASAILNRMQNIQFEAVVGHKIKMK
- assay procedure: Substrate screening of steroid and bioactive lipid libraries against purified recombinant HSD17B13 (NADH-linked luciferase assay)
- Assay type: biochemical
- study conditions: Bioactive Lipid Library, 5 μM bioactive lipid (Estradiol Control 50 μM), 500 μM NAD+, 100 ng enzyme, 3 hours at 23° C.
- Procedure: To understand the functional consequences of premature truncation of the HSD17B13 protein due to rs72613567:TA (the associated variant, rs72613567, is an insertion of an adenine adjacent to the donor splice site of exon six (TA allele)), the enzymatic activity of isoforms A and D was evaluated in vitro using recombinant protein and nicotinamide […] dinucleotide as cofactor. […]
Would you kindly list HSD17B13 Enzymatic Activity Relative Light Units for each of these molecules?
Hi! Could you send only the number? It should be in RLU, unit omitted.

HSD17B13 Enzymatic Activity Relative Light Units reading for CCCCC/C=C\CC(O)C(O)C/C=C\C/C=C\CCCC(=O)O (racemic) [(±)11(12)-DiHET] : 599000

// HSD17B13 Enzymatic Activity Relative Light Units lookup, molecule = CC/C=C\C/C=C\C=C\C(O)C/C=C\C/C=C\C/C=C\CCC(=O)O (racemic) [(±)13-HDHA] , result: 1154720

Noted for CCCCC[C@H](O)/C=C/[C@H]1[C@@H](O)CC(=O)[C@@H]1C/C=C\CCCC(=O)O [11β-Prostaglandin E2] : its HSD17B13 Enzymatic Activity Relative Light Units reads 354840

Entry CC/C=C\C[C@H]1O[C@H]1C/C=C\C/C=C\C/C=C\C/C=C\CCC(=O)O (racemic) [(±)16(17)-EpDPA] ; HSD17B13 Enzymatic Activity Relative Light Units = 274120
